experiment: Aqueous solubility of compound at pH 7.4 measured after 24 hrs; type: physicochemical; details: buffer
readout: solubility at 24 h (µM)
Your answer should be a plain number; it is taken to be in µM.

(Q) What does the data say about its solubility at 24 h? Entry: CCCCCCCCn1c2c([n+](CCCC)c1C)C(=O)c1ccccc1C2=O.[Br-]
(A) 118

More entries:
(Q) Any idea what its solubility at 24 h is? The compound is CCCCn1c2c([n+](C3CCC4(CCCCC4)CC3)c1C)C(=O)c1ccccc1C2=O.[Br-]
(A) 118
